Molecular target: UniProt:P00766
Test: Chymotrypsin inhibitory activity of peptides (AAPFpNA hydrolysis; IC50, Ki, residual activity)
Assay type: biochemical
Bridge positions count the residues as written; N and C are the ends. Peptide text beside a SMILES is read from it.
Readout Type: inhibitory activity against chymotrypsin (in words)

* CC[C@H](C)[C@@H]1NC(=O)[C@H](CO)NC(=O)[C@H](Cc2ccc(O)cc2)NC(=O)[C@H]([C@@H](C)O)NC(=O)[C@H](C)NC(=O)[C@H](CO)NC(=O)CNC(=O)[C@@H](N)CSSC[C@@H](C(=O)N[C@H](C(=O)NCC(=O)O)C(C)C)NC(=O)[C@H](CCC(N)=O)NC(=O)[C@H](C)NC(=O)[C@@H]2CCCN2C1=O [CH23] (H-CGSATYSIPAQCVG-OH; disulfide 1-12; N-terminus and C-terminus assumed) | good inhibitory activity
* CC[C@H](C)[C@@H]1NC(=O)[C@H](CO)NC(=O)[C@H](Cc2ccc(O)cc2)NC(=O)[C@H]([C@@H](C)O)NC(=O)[C@@H](NC(=O)[C@@H](N)Cc2ccccc2)CSSC[C@@H](C(=O)N[C@@H](CCCNC(=N)N)C(=O)O)NC(=O)[C@H](CCC(N)=O)NC(=O)[C@@H]2CCCN2C(=O)[C@@H]2CCCN2C1=O [CH35] (H-FCTYSIPPQCR-OH; disulfide 2-10; C-terminus assumed) | good inhibitory activity
